- ASSAYED SYSTEM: trypsin from bovine pancreas (Bos taurus)
- Sequence (P00760 24-246): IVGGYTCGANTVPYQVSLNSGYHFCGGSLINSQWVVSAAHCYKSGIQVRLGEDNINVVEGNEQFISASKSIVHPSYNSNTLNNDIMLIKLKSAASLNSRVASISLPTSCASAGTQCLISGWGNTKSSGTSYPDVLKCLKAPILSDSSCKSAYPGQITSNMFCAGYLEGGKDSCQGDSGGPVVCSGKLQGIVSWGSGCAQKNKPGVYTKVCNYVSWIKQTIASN
We begin with a simple list: items and their reported Ki.

>  <MOLECULE>
COC(=O)C1OC(NC(=O)C[C@H](NS(=O)(=O)c2c(C)cc(OC)c(C)c2C)C(=O)N[C@H](Cc2ccc(C(=N)N)cc2)C(=O)N2CCCCC2)C(OC(C)=O)C(OC(C)=O)C1OC(C)=O.Cl (some centres unmarked) [Compound 24, hydrochloride]

>  <UNIT STRING>
nM

>  <Ki>
231

$$$$
>  <MOLECULE>
COc1cc(C)c(S(=O)(=O)N[C@@H](CC(=O)N[C@@H]2O[C@H](CO)[C@@H](O)[C@H](O)[C@H]2NC(C)=O)C(=O)N[C@H](Cc2ccc(C(=N)N)cc2)C(=O)N2CCCCC2)c(C)c1C.Cl [Compound 32, hydrochloride]

>  <UNIT STRING>
nM

>  <Ki>
528

$$$$
>  <MOLECULE>
COc1cc(C)c(S(=O)(=O)N[C@@H](CO[C@@H]2OC[C@@H](O)[C@@H](O)[C@H]2O)C(=O)N[C@H](Cc2ccc(C(=N)N)cc2)C(=O)N2CCCCC2)c(C)c1C.I [Compound 42, hydroiodide]

>  <UNIT STRING>
nM

>  <Ki>
650

$$$$
>  <MOLECULE>
COc1cc(C)c(S(=O)(=O)N[C@@H](CC(=O)N[C@@H]2O[C@H](COC(C)=O)[C@@H](OC(C)=O)[C@H](OC(C)=O)[C@H]2OC(C)=O)C(=O)N[C@H](Cc2ccc(C(=N)N)cc2)C(=O)N2CCCCC2)c(C)c1C.Cl [Compound 25, hydrochloride]

>  <UNIT STRING>
nM

>  <Ki>
283

$$$$
>  <MOLECULE>
COc1cc(C)c(S(=O)(=O)N[C@@H](CC(=O)N[C@@H]2O[C@H](CO)[C@@H](O)[C@H](O)[C@H]2O)C(=O)N[C@H](Cc2ccc(C(=N)N)cc2)C(=O)N2CCCCC2)c(C)c1C.Cl [Compound 31, hydrochloride]

>  <UNIT STRING>
nM

>  <Ki>
501

$$$$

---

We begin with a simple list: items and their reported LD50 (rat).
- Tested on: CD rats
- METHOD SUMMARY: Determination of the acute toxicity
- Format: in vivo, rat
- TEST PARAMETERS: i.v., survival on day 1, Litchfield & Wilcoxon method
RECORDED METRIC: LD50 (rat) (mg/kg)

>  <MOLECULE>
COc1cc(C)c(S(=O)(=O)N[C@@H](CC(=O)N[C@@H]2O[C@H](CO)[C@@H](O)[C@H](O)[C@H]2NC(C)=O)C(=O)N[C@H](Cc2ccc(C(=N)N)cc2)C(=O)N2CCCCC2)c(C)c1C.Cl

>  <ASSAYED SYSTEM>
CD rats

>  <RECORDED METRIC>
LD50 (rat)

>  <QUANTITATIVE READOUT>
53

$$$$
>  <MOLECULE>
COc1cc(C)c(S(=O)(=O)N[C@@H](CC(=O)N[C@@H]2O[C@H](CO)[C@H](O)[C@H](O)[C@H]2NC(C)=O)C(=O)N[C@H](Cc2ccc(C(=N)N)cc2)C(=O)N2CCCCC2)c(C)c1C.Cl

>  <ASSAYED SYSTEM>
CD rats

>  <RECORDED METRIC>
LD50 (rat)

>  <QUANTITATIVE READOUT>
64

$$$$
>  <MOLECULE>
COc1cc(C)c(S(=O)(=O)N[C@@H](CC(=O)N[C@@H]2O[C@H](COC(C)=O)[C@@H](OC(C)=O)[C@H](OC(C)=O)[C@H]2OC(C)=O)C(=O)N[C@H](Cc2ccc(C(=N)N)cc2)C(=O)N2CCCCC2)c(C)c1C.Cl

>  <ASSAYED SYSTEM>
CD rats

>  <RECORDED METRIC>
LD50 (rat)

>  <QUANTITATIVE READOUT>
55

$$$$
>  <MOLECULE>
COC(=O)C1OC(NC(=O)C[C@H](NS(=O)(=O)c2c(C)cc(OC)c(C)c2C)C(=O)N[C@H](Cc2ccc(C(=N)N)cc2)C(=O)N2CCCCC2)C(OC(C)=O)C(OC(C)=O)C1OC(C)=O.Cl (stereo partly shown)

>  <ASSAYED SYSTEM>
CD rats

>  <RECORDED METRIC>
LD50 (rat)

>  <QUANTITATIVE READOUT>
46

$$$$
